Target: T1, biotinylated human B7-H7 protein (Acro Biosystems, B77-H82F5) (human, UniProt Q9UM44 23-344, biotinylated)
T1 construct: Bought soluble protein; also called biotin-B7H7 protein
T1 sequence (looked up): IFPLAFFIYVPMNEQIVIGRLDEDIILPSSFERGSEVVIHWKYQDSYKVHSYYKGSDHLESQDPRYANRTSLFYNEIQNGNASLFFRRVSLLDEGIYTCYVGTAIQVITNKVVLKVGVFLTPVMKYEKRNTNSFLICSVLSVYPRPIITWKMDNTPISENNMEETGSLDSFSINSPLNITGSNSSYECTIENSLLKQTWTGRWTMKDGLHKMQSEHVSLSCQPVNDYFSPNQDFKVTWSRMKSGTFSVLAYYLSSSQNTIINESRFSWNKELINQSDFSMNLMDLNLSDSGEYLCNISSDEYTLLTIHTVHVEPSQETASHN
Experiment: flow cytometry, blocking of biotinylated human B7-H7 binding to CHO-K1/KIR3DL3 cells
Reported Maximum inhibition rate (%) by item:
Property: Maximum inhibition rate (%)

Binder	Property	Uom	Val
PR003252 (antibody, human IgG1, kappa, V domains shown, Human IgG1; also called 53C12D4) VH: QVQLVESGGGVVQPGRSLRLSCAASGFTFSNYAMHWVRQVPGKGLEWVALIWYDGSEKYYADSVKGRFTISRDDSKNTLFLQMSSLRAEDTAVYSCVREYSSGWGYFDYWGQGTQVTVSS VL: DIQMTQSPSTLSASVGDRVTITCRASQSISSWLAWYQQKPGKAPKLLIYKASSLKSGVPSRFSGSGSGTEFTLTISSLQPDDFATYYCLQYNSYYTFGQGTKLEIKR	Maximum inhibition rate (%)	%	97.1
PR003262 (antibody, human IgG1, kappa, V domains shown, Human IgG1; also called 77D5A4) VH: QVQLVESGGGVVQPGRSLRLSCAASGFTFSRYGIHWVRQAPGKGLEWVAVIWYNGRNKYYVDSVKGRFTISRDNSKNTLYLQMNSLRAEDTAVYYCARDGGYSYGPFDYWGQGTLVTVSS VL: EIVMTQSPATLSVSPGERATLSCRASQSFSNNLAWYQQKPGQAPRLLIYGASTRATGIPARFSGSGSGTEFTLTISSLQSEDFAVYYCHQYNIWPLTFGGGTKVEIKR	Maximum inhibition rate (%)	%	105
PR003265 (antibody, human IgG1, kappa, V domains shown, Human IgG1; also called 78G8B3) VH: QVQLVESGGGVVQPGRSLRLSCAASGFTFSTYGLHWVRQAPGKGLEWVAVIWYDESNEYYADSVKGRFTISRDNSKNTLYLQMNSLRAEDTALYYCARLAHDYGGTYFDYWGQGTLVTVSS VL: EIVMTQSPAILSVSPGERATLSCRASQSISYNLAWYQQKPGQAPRLLIYGASIRATGIPARFSGSGSGTDFTLTISSLQSEDFAVYYCQQYNNWPPWTFGQGTKVEIKR	Maximum inhibition rate (%)	%	101
PR003263 (antibody, human IgG1, kappa, V domains shown, Human IgG1; also called 77E6C4) VH: QVQLVESGGGVVQPGRSLRLSCAASGFTFSYYGLNWVRQAPGKGLEWVAVIWFDGTNKYYADSVKGRFTISRDDSKNTLYLQMNSLRAEDTAVYYCARGYGSGSYYNYVMDAWGQGASVTVSS VL: EIVMTQSPATLSVSPGERATLSCRASQSVSSNLAWYQQKPGQAPRLLIYGASTGATGIPARFSGSGSGTDFTLTISSLQSEDFAVYYCQQYYKWPLTFGGGTKVEIKR	Maximum inhibition rate (%)	%	103
